System: E. cloacae 218R Class C β-lactamase
Assay: microbe, parasite or virus in culture
Details: 218R Class C β-lactamase
Numbered stars: 1 amine (or outer) side, 2 acyl side, 3 side chain; on linkers, the order of the positions; unused ones are H or OH. Square brackets hold non-standard residues; d marks the D form. Peptide text beside a SMILES is read from it. X1 = CC(C)[C@H](C)N(CC(=O)[*:2])[*:1]; Nspe = C[C@H](NCC(=O)O)c1ccccc1; Nlys = NCCCCNCC(=O)O
Can you tell me MIC for the items I'm about to list?
Numbers only, in µg/mL.

{"columns": ["Compound", "Measured endpoint", "Endpoint unit", "Readout value"],
 "data": [
  ["C[C@@H](c1ccccc1)N(CC(N)=O)C(=O)CN(CCCCN)C(=O)CN(CCCCN)C(=O)CN(C(=O)CN(C(=O)CN(CCCCN)C(=O)CN(C(=O)CN(CCCCN)C(=O)CN(CCCCN)C(=O)CN(C(=O)CN(C(=O)CNCCCCN)[C@@H](C)c1ccccc1)[C@@H](C)c1ccccc1)[C@@H](C)c1ccccc1)[C@@H](C)c1ccccc1)[C@@H](C)c1ccccc1 [1-NLys5,11, H-(NLys-Nspe-Nspe-NLys-NLys-Nspe)2-NH2] (H-[Nlys][Nspe][Nspe][Nlys][Nlys][Nspe][Nlys][Nspe][Nspe][Nlys][Nlys][Nspe]-NH2)", "MIC", "µg/mL", 32]
]}

Note: attention shifts to another entry.
Form field, MIC with E. cloacae 218R Class C β-lactamase, item CC(C)[C@H](C)N(CC(=O)N(CC(=O)N(CCCCN)CC(=O)N(CC(=O)N(CC(=O)N(CCCCN)CC(=O)N(CC(=O)N(CC(=O)N(CCCCN)CC(=O)N(CC(=O)N(CC(N)=O)[C@@H](C)c1ccccc1)[C@@H](C)C(C)C)[C@@H](C)c1ccccc1)[C@@H](C)C(C)C)[C@@H](C)c1ccccc1)[C@@H](C)C(C)C)[C@@H](C)c1ccccc1)C(=O)CNCCCCN [1-Nsdp2.5.8.11, H-(NLys-Nsdp-Nspe)4-NH2] (H-[Nlys][X1][Nspe][Nlys][X1][Nspe][Nlys][X1][Nspe][Nlys][X1][Nspe]-NH2) : 16

----------
Test system: P. aeruginosa H1030 (MDR)
Assay: microbe, parasite or virus in culture
Details: P. aeruginosa H1030 (MDR)
Square brackets hold non-standard residues; d marks the D form. Peptide text beside a SMILES is read from it. Nspe = C[C@H](NCC(=O)O)c1ccccc1; Nlys = NCCCCNCC(=O)O
Measured endpoint: MIC
Enter the number, and then the unit.

Entry C[C@@H](c1ccccc1)N(CC(N)=O)C(=O)CN(C(=O)CN(CCCCN)C(=O)[C@@H]1CCCN1C(=O)CN(C(=O)CN(CCCCN)C(=O)CN(C(=O)CN(C(=O)CN(CCCCN)C(=O)CN(C(=O)CN(C(=O)CNCCCCN)[C@@H](C)c1ccccc1)[C@@H](C)c1ccccc1)[C@@H](C)c1ccccc1)[C@@H](C)c1ccccc1)[C@@H](C)c1ccccc1)[C@@H](C)c1ccccc1 [Peptoid 1-Pro9] (H-[Nlys][Nspe][Nspe][Nlys][Nspe][Nspe][Nlys][Nspe]P[Nlys][Nspe][Nspe]-NH2) — recorded MIC = 32 µg/mL

----------
Tested on: E. faecalis ATCC29212
Assay: microbe, parasite or virus in culture
Conditions: ATCC29212
Square brackets hold non-standard residues; d marks the D form. Peptide text beside a SMILES is read from it. Nspe = C[C@H](NCC(=O)O)c1ccccc1; Nphe = O=C(O)CNCc1ccccc1; Nlys = NCCCCNCC(=O)O
Measured endpoint: MIC (µg/mL)
One number for each entry, in µg/mL.

Examples from the recorded data:
{"columns": ["Molecule", "Readout value"],
 "data": [
  ["C[C@@H](c1ccccc1)N(CC(N)=O)C(=O)CN(C(=O)CN(CCCCN)C(=O)CN(C(=O)CN(C(=O)CN(CCCCN)C(=O)CN(C(=O)CN(C(=O)CN(CCCCN)C(=O)[C@@H]1CCCN1C(=O)CN(C(=O)CNCCCCN)[C@@H](C)c1ccccc1)[C@@H](C)c1ccccc1)[C@@H](C)c1ccccc1)[C@@H](C)c1ccccc1)[C@@H](C)c1ccccc1)[C@@H](C)c1ccccc1 [Peptoid 1-Pro3, H-NLys-Nspe-L-Pro-(NLys-Nspe-Nspe)3-NH2] (H-[Nlys][Nspe]P[Nlys][Nspe][Nspe][Nlys][Nspe][Nspe][Nlys][Nspe][Nspe]-NH2)", 8],
  ["C[C@@H](c1ccccc1)N(CC(=O)N(CC(=O)N(CCCCN)CC(=O)N(CC(=O)N(CC(=O)N(CCCCN)CC(=O)N(CC(=O)N(CC(=O)N(CCCCN)CC(=O)N(CC(=O)N(CC(N)=O)Cc1ccccc1)Cc1ccccc1)Cc1ccccc1)Cc1ccccc1)Cc1ccccc1)Cc1ccccc1)Cc1ccccc1)C(=O)CNCCCCN [Peptoid 1ach-Nspe2, H-(NLys-Nspe-Npm)- (NLys-Npm-Npm)3-NH2] (H-[Nlys][Nspe][Nphe][Nlys][Nphe][Nphe][Nlys][Nphe][Nphe][Nlys][Nphe][Nphe]-NH2)", 16],
  ["C[C@H](NCC(=O)N(CC(=O)N(CCCCN)CC(=O)N(CC(=O)N(CCCCN)CC(=O)N(CC(=O)N(CCCCN)CC(=O)N(CC(=O)N(CC(=O)N(CC(=O)N(CC(=O)N(CCCCN)CC(N)=O)[C@@H](C)c1ccccc1)[C@@H](C)c1ccccc1)[C@@H](C)c1ccccc1)[C@@H](C)c1ccccc1)[C@@H](C)c1ccccc1)[C@@H](C)c1ccccc1)[C@@H](C)c1ccccc1)c1ccccc1 [Peptoid 1scr, H-(Nspe)2-(NLys-Nspe)3-(Nspe)3-NLys-NH2] (H-[Nspe][Nspe][Nlys][Nspe][Nlys][Nspe][Nlys][Nspe][Nspe][Nspe][Nspe][Nlys]-NH2)", 8]
]}

# input for lookup
Entry under test: CC(C)[C@H](C)N(CC(N)=O)C(=O)CN(C(=O)CN(CCCCN)C(=O)CN(C(=O)CN(C(=O)CN(CCCCN)C(=O)CN(C(=O)CN(C(=O)CN(CCCCN)C(=O)CN(C(=O)CN(C(=O)CNCCCCN)[C@@H](C)C(C)C)[C@@H](C)C(C)C)[C@@H](C)C(C)C)[C@@H](C)C(C)C)[C@@H](C)C(C)C)[C@@H](C)C(C)C)[C@@H](C)C(C)C . Its MIC was 64
